Origin of the recorded values: patent US20070128217A1

- System: control sera (pooled serum of ten healthy LUMC hospital workers; commercial negative donor pooled serum from the Dutch bloodbank)
- Type: binding, human
- Parameters: unit not given here
Quantity: Binding of Control serum Blood-bank to linear peptides
I only need the number, thanks.

Examples with answers:
{"columns": ["Sequence Record", "Experimental Value"],
 "data": [
  ["LPNNTASWFTALTQH", 0.7],
  ["KCKSKNPLLYDANYF", 0.6],
  ["PKGFYAEGSRGGSQA", 0.8],
  ["QLPQGTTLPKGFYAE", 0.9],
  ["GNSRNSTPGSSRGNS", 0.8],
  ["LYSPLFLIVAALVFL", 0.5]
]}

Attention now turns to another entry.
Note Binding of Control serum Blood-bank to linear peptides for the sequence shown: `LACLCKHKKVSTNLC`
0.8

----------
- System: rabbit serum obtained by immunizing a rabbit with the SARS-CoV strain Frankfurt 1
- Format: binding
- Parameters: unit not given here
Quantity: Binding of a rabbit serum to linear peptides
I only need the number, thanks.

Examples with answers:
{"columns": ["Sequence Record", "Target Under Test", "Experimental Value"],
 "data": [
  ["IQFMMSRRRLLACLC", "rabbit serum obtained by immunizing a rabbit with the SARS-CoV strain Frankfurt 1", 0.5],
  ["FVTIYSHLLLVAAGM", "rabbit serum obtained by immunizing a rabbit with the SARS-CoV strain Frankfurt 1", 0.1],
  ["LVAAGMEAQFLYLYA", "rabbit serum obtained by immunizing a rabbit with the SARS-CoV strain Frankfurt 1", 0.1],
  ["DGSSGVANPAMDPIY", "rabbit serum obtained by immunizing a rabbit with the SARS-CoV strain Frankfurt 1", 0.1],
  ["LCWKCKSKNPLLYDA", "rabbit serum obtained by immunizing a rabbit with the SARS-CoV strain Frankfurt 1", 0.3],
  ["QLALYKGFQFICNLL", "rabbit serum obtained by immunizing a rabbit with the SARS-CoV strain Frankfurt 1", 0.3]
]}

# assay system rabbit serum obtained by immunizing a rabbit with the SARS-CoV strain Frankfurt 1: give Binding of a rabbit serum to linear peptides of `NLLLLFVTIYSHLLL`
0.2

# assay system rabbit serum obtained by immunizing a rabbit with the SARS-CoV strain Frankfurt 1: give Binding of a rabbit serum to linear peptides of `SPASTVHATATIPLQ`
1.0

# assay system rabbit serum obtained by immunizing a rabbit with the SARS-CoV strain Frankfurt 1: give Binding of a rabbit serum to linear peptides of `STVHATATIPLQASL`
0.6

# assay system rabbit serum obtained by immunizing a rabbit with the SARS-CoV strain Frankfurt 1: give Binding of a rabbit serum to linear peptides of `VQIHTIDGSSGVANP`
0.1

# assay system rabbit serum obtained by immunizing a rabbit with the SARS-CoV strain Frankfurt 1: give Binding of a rabbit serum to linear peptides of `LAVFQSATKIIALNK`
0.1

# assay system rabbit serum obtained by immunizing a rabbit with the SARS-CoV strain Frankfurt 1: give Binding of a rabbit serum to linear peptides of `YFVCWHTHNYDYCIP`
0.1

# assay system rabbit serum obtained by immunizing a rabbit with the SARS-CoV strain Frankfurt 1: give Binding of a rabbit serum to linear peptides of `TTLFAGTHITMTTVY`
0.6

# assay system rabbit serum obtained by immunizing a rabbit with the SARS-CoV strain Frankfurt 1: give Binding of a rabbit serum to linear peptides of `GWLVIGVAFLAVFQS`
0.8

----------
This section presents sequences with their documented Rabbit serum linear peptides values.
- Tested on: rabbit serum obtained by immunizing a rabbit with the SARS-CoV strain Frankfurt 1
- Assay type: binding
- Parameters: unit not given here
I only need the number, thanks.

{"columns": ["Sequence Record", "Experimental Value"],
 "data": [
  ["YSNRNRFLYIIKLVF", 0.4],
  ["LWPVTLACFVLAAVY", 0.4],
  ["FTSCELYHYQECVRG", 0.4],
  ["PLFLIVAALVFLILC", 0.4]
]}

Attention now turns to another entry.
Note Rabbit serum linear peptides for the sequence shown: `IIIMRTFRIAIWNLD`
0.4
